Tested on: HCT-15 colon
EXPERIMENTAL_DETAILS: NCI-60 one-dose screen, 48 h
CONDITION_DETAILS: 10 µM unless noted
Protocol: Growth inhibition of the HCT-15 human tumor cell line is measured as a screen for anti-cancer activity. Cells are grown in 96 well plates and exposed to the test compound for 48 hours. Compounds are tested at a single concentration, which is 10^-5 M for most compounds. The reported endpoint is percent growth (GI% or GIPRCNT), where numbers from 0 - 100% represent growth inhibition, and numbers from -100% - 0 represent cell death. For example, a value of 40 represents 60% growth inhibition. […]
Compounds without any hit were thinned out: in the full panel of roughly 83,000, 20% have a hit. The source made the active and inactive calls. The calls were made as follows: active = growth percent below 10; inactive = the rest.
Allowed answers: active, inactive

For orientation, consider the following solved cases.
MOLECULE: Cn1cc(-c2noc(-c3cn(C)c4ncccc34)n2)c2cc(Cl)ccc21
LABEL_CLASS: inactive

MOLECULE: Oc1c(CNCCNCc2cc(Cl)cc(Cc3ccccc3)c2O)cc(Cl)cc1Cc1ccccc1
LABEL_CLASS: inactive

MOLECULE: COc1c(B(O)O)cccc1-c1nc2ccc3[nH]ncc3c2c2c1CCC2
LABEL_CLASS: inactive

MOLECULE: CCOC(=O)c1cc(C#N)n2ncc3ccccc3c12
LABEL_CLASS: inactive

MOLECULE: C#CCNC(=O)CC[C@]1(C)[C@H]2CC[C@@H]3[C@@H]([C@@](C)(O)CCC=C(C)C)CC[C@@]3(C)[C@]2(C)CC[C@H]1C(=C)C
LABEL_CLASS: inactive

MOLECULE: N#Cc1c(Cl)nc(SCC2CO2)nc1-c1ccccc1 (stereo not drawn)
LABEL_CLASS: inactive

MOLECULE: C#CCOc1ccc(C2=NN(CC3CC3)C3N=C(Cl)c4ncn(CC5CC5)c4N23)cc1OCC#C (stereo not drawn)
LABEL_CLASS: inactive

MOLECULE: CC(C)OC(=O)Nc1cc(F)c(F)cc1F
LABEL_CLASS: inactive

MOLECULE: CC(C)=CCC[C@](C)(O)[C@H]1CC[C@]2(C)[C@@H]1CC[C@@H]1[C@@]3(C)CC/C(=N/O)C(C)(C)[C@@H]3CC[C@]12C
LABEL_CLASS: inactive

MOLECULE: CCN=C1C=CC(=C(c2ccc(N(CC)CC)cc2)c2ccc(N(CC)CC)cc2)c2ccccc21
LABEL_CLASS: active

Test call, this molecule: COc1cc2c(O)n(CCCN3CCOCC3)c3c4cnc5cccc(c(=O)c3c2cc1OC)c54
inactive

Test call, this molecule: Nc1nc(Nc2ccccc2)c2ncn(Cc3ccc4c(c3)OCO4)c2n1
inactive

Test call, this molecule: CCC(C)[C@H](NC(=O)NC(=O)NC(=O)CI)C(=O)OC (stereo partly drawn)
inactive

Test call, this molecule: CCOC(=O)CC(c1ccccc1)C(C#N)c1ccccc1 (stereo not drawn)
inactive

Test call, this molecule: COc1ncc(-c2ccc3nc(N)n(-c4ccccc4C(F)(F)F)c(=O)c3c2)cc1S(=O)(=O)Nc1ccc(F)cc1F
inactive

Test call, this molecule: CCOC(=O)c1cnc2ccc(Br)cc2c1Nc1cccc(S(N)(=O)=O)c1
inactive

Test call, this molecule: Cn1ncc2c(Nc3ccc(O)cc3)nc(Cl)nc21
inactive

Test call, this molecule: O=C(Nc1ccc(Oc2ccc(F)cc2)c(Cl)c1)c1cccnn1
inactive

Test call, this molecule: O=C(Nc1cc(F)cc2cccnc12)c1cnc(N2CCNCC2)cn1
inactive

Where these numbers come from: PubChem BioAssay (NCI)
